ASSAY TEXT: Pharmacokinetics and absorption after IV and oral [14C]eplerenone in the rat
Type: in vivo
CONDITION NOTES: rat, plasma, po, 15 mg/kg, systemic availability of total eplerenone, oral 15 mg/kg, female rat
Protocol: Plasma, urine and fecal samples were analyzed for total radioactivity.
MEASURED METRIC: bioavailability (%)
Kindly answer with a numeric value in %, unit omitted.

// query Consider the compound COC(=O)[C@@H]1CC2=CC(=O)CC[C@]2(C)[C@@]23O[C@@H]2C[C@@]2(C)[C@@H](CC[C@@]24CCC(=O)O4)[C@H]13 [Eplerenone] and give its measured bioavailability.
// result 74.2

###

ASSAY TEXT: Pharmacokinetics and absorption after IV and oral [14C]eplerenone in the rat
Assay type: in vivo
CONDITION NOTES: rat, plasma, po, 15 mg/kg, Cmax of total eplerenone, oral 15 mg/kg, male rat
MEASURED METRIC: Cmax (ng/mL)
The response must be a number in ng/mL with no trailing unit.

// query So what does the record say about Cmax for `COC(=O)[C@@H]1CC2=CC(=O)CC[C@]2(C)[C@@]23O[C@@H]2C[C@@]2(C)[C@@H](CC[C@@]24CCC(=O)O4)[C@H]13` ?
// result 3200
